Each entry below lists one item and its recorded pIC50 value.
Test system: Candida albicans
experiment: In vitro antifungal activity against Candida albicans (CY1002) in YNBPB medium
Assay type: functional, organism-based
Remember the convention: pIC50 equals -log10 of concentration in molar.

Some solved cases for reference:
{"columns": ["compound", "target.desc", "pIC50"],
 "data": [
  ["Cc1c(C(=O)c2nc3ccccc3n2C(C)C)oc2cccc(OCCCNCc3cccnc3)c12", "Candida albicans", 7.72],
  ["Cc1c(C(=O)c2ncccc2C(F)(F)F)oc2cccc(OCCCNCc3cccnc3)c12", "Candida albicans", 6.47],
  ["Cc1c(C(=O)c2nc3ccccc3n2C)oc2cccc(OCCCNCc3cccnc3)c12", "Candida albicans", 7.46],
  ["Cc1c(C(=O)c2nccs2)oc2cccc(OCCCNCc3cccnc3)c12", "Candida albicans", 6.27],
  ["Cc1c(C(=O)c2nccn2C)oc2cccc(OCCCNCc3cccnc3)c12", "Candida albicans", 6.92]
]}

Form field: pIC50 recorded for `Cc1c(C(=O)c2ccccn2)oc2cccc(OCCCNCc3cccnc3)c12` with Candida albicans (enter value)
7.19

Then `Cc1nc(C(=O)c2oc3cccc(OCCCNCc4cccnc4)c3c2C)sc1C` ?
7.41

Then `C=CCn1c(C(=O)c2oc3cccc(OCCCNCc4cccnc4)c3c2C)nc2ccccc21` ?
7.32

Then `Cc1csc(C(=O)c2oc3cccc(OCCCNCc4cccnc4)c3c2C)n1` ?
6.85

Then `Cc1c(C(=O)c2ccco2)oc2cccc(OCCCNCc3cccnc3)c12` ?
5.34

----------
target.desc: Peptide N-myristoyltransferase (Aspergillus fumigatus)
experiment: In vitro inhibitory activity against Aspergillus fumigatus Nmt (AfNmt) using substrate peptide GLTISKLFR-R-NH2 (0.5 uM) and myristoyl-CoA (0.5 uM)
measured.endpoint: IC50
Put your answer as a value accompanied by its unit after it.

Some solved cases for reference:
{"columns": ["compound", "IC50"],
 "data": [
  ["Cc1c(C(=O)c2nccs2)oc2cccc(OCCCNCc3cccnc3)c12", "63 µM"],
  ["Cc1c(C(=O)c2ncccc2C(F)(F)F)oc2cccc(OCCCNCc3cccnc3)c12", "11 µM"],
  ["Cc1c(C(=O)c2ccco2)oc2cccc(OCCCNCc3cccnc3)c12", "150 µM"],
  ["Cc1c(C(=O)c2nc3ccccc3n2C)oc2cccc(OCCCNCc3cccnc3)c12", "13 µM"],
  ["Cc1c(C(=O)c2nc3ccccc3n2C(C)C)oc2cccc(OCCCNCc3cccnc3)c12", "0.48 µM"]
]}

Tell me the measured IC50 of `Cc1c(C(=O)c2ccccn2)oc2cccc(OCCCNCc3cccnc3)c12` , please.
42 µM

Then `C=CCn1c(C(=O)c2oc3cccc(OCCCNCc4cccnc4)c3c2C)nc2ccccc21` ?
5.1 µM

Then `Cc1csc(C(=O)c2oc3cccc(OCCCNCc4cccnc4)c3c2C)n1` ?
18 µM

Then `Cc1nc(C(=O)c2oc3cccc(OCCCNCc4cccnc4)c3c2C)sc1C` ?
4.3 µM

----------
target.desc: Peptide N-myristoyltransferase (Candida albicans)
experiment: Inhibitory activity against Candida albicans Nmt (CaNmt) using substrate peptide GLTISKLFR-R-NH2 (0.5 uM) and myristoyl-CoA (0.5 uM)
Each entry below lists one item and its recorded IC50 value.
Give the value, in units of µM, as a plain number.

Some solved cases for reference:
{"columns": ["compound", "result"],
 "data": [
  ["Cc1c(C(=O)c2ccccc2)oc2cccc(OCCCNCc3cccnc3)c12", 1.2],
  ["Cc1c(C(=O)c2cccnc2)oc2cccc(OCCCNCc3cccnc3)c12", 0.062],
  ["Cc1c(C(O)c2ccccn2)oc2cccc(OCCCNCc3cccnc3)c12 (centres undefined)", 0.047]
]}

Now turn to the next compound.
Tell me the measured IC50 of `Cc1c(Cc2ccccn2)oc2cccc(OCCCNCc3cccnc3)c12` , please.
1.9

----------
experiment: Half life period was evaluated in rat plasma
Type: ADME, organism-based
Each entry below lists one item and its recorded half-life value.
Give the value, in units of min, as a plain number.

Some solved cases for reference:
{"columns": ["compound", "half-life, min"],
 "data": [
  ["Cc1ccc(C(=O)c2oc3cccc(OCCCNCc4cccnc4)c3c2C)nc1", 34.8],
  ["Cc1c(C(=O)c2nc3ccccc3n2C(C)C)oc2cccc(OCCCNCc3cccnc3)c12", 51.6],
  ["Cc1csc(C(=O)c2oc3cccc(OCCCNCc4cccnc4)c3c2C)n1", 20.4],
  ["Cc1c(C(=O)c2nccn2C)oc2cccc(OCCCNCc3cccnc3)c12", 27]
]}

Tell me the measured half-life of `Cc1c(COc2ccc(F)c(F)c2F)oc2cccc(OCCCNCc3cccnc3)c12` , please.
120

Then `Cc1c(C(=O)c2nc3ccccc3n2C)oc2cccc(OCCCNCc3cccnc3)c12` ?
35.4

Then `Cc1c(C(=O)c2ccccn2)oc2cccc(OCCCNCc3cccnc3)c12` ?
32.4

Then `C=CCn1c(C(=O)c2oc3cccc(OCCCNCc4cccnc4)c3c2C)nc2ccccc21` ?
48

Then `Cc1nc(C(=O)c2oc3cccc(OCCCNCc4cccnc4)c3c2C)sc1C` ?
39

Then OC(Cn1cncn1)(Cn1cncn1)c1ccc(F)cc1F [FLUCONAZOLE] ?
240

Then `Cc1c(C(=O)c2ncccc2C(F)(F)F)oc2cccc(OCCCNCc3cccnc3)c12` ?
33.6

----------
experiment: Pharmacokinetic property when administered intravenously in rat at 2 mg/kg
Format: ADME, organism-based
Parameters: dose 2 mg/kg, route intravenous
protocol.conditions: in vivo, iv
Each entry below lists one item and its recorded AUC value.
Give the value, in units of ng·h/mL, as a plain number.

{"columns": ["compound", "unit.name", "AUC"],
 "data": [
  ["Cc1c(C(=O)c2ncccc2C(F)(F)F)oc2cccc(OCCCNCc3cccnc3)c12", "ng·h/mL", 590]
]}

Tell me the measured AUC of `OC(Cn1cncn1)(Cn1cncn1)c1ccc(F)cc1F` , please.
19600

Then `Cc1c(C(=O)c2nc3ccccc3n2C)oc2cccc(OCCCNCc3cccnc3)c12` ?
450
